# assay-target: T1, huNABA-avi-his (hybrid protein N-A1-B3-A2: N and A1 domains of human BGP, B3 domain of human CEA, A2 domain … (human, biotinylated at the avi tag (in vivo, co-transfected biotin ligase)))
# T1 construct: also called NABA-avi-his reagent; biotinylated NABA
# T1 chain: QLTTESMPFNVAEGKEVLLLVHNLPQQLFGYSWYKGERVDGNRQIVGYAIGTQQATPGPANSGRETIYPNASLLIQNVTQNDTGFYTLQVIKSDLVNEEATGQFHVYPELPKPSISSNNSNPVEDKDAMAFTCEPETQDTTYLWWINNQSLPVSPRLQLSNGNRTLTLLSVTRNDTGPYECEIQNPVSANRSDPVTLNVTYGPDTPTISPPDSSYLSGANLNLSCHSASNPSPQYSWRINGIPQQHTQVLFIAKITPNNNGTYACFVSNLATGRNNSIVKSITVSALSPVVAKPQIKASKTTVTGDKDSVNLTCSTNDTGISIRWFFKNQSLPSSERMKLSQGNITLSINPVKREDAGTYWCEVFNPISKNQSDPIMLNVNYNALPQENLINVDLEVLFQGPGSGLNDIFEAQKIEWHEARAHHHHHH
# protocol: Biacore on immobilized NABA-avi-his; Bivalent Affinity
measure: koff (s⁻¹)
Report only the number, with the unit s⁻¹ understood.

humanized PR1A3 antibody comprising heavy chain variable region construct CH7A and light chain variable region construct CL1A (antibody, human IgG1, V domains shown, also called CH7A CL1A; CH7A, CL1A) VH: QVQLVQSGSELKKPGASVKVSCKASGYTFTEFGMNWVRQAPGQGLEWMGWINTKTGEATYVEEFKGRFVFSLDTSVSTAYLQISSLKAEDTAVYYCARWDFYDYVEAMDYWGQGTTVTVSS VL: DIQMTQSPSSLSASVGDRVTITCKASQNVGTNVAWYQQKPGKAPKLLIYSASYRYSGVPSRFSGSGSGTDFTLTISSLQPEDFATYYCHQYYTYPLFTFGQGTKLEIK ... 0.000552

Data request: Which koff is listed for H4E9 x 2F1 (bivalent) (antibody, V domains shown, bivalent form of the clone) VH: QVQLVQSGSELKKPGASVKVSCKASGYTFTEFGMNWVRQAPGQGLEWMGWINTKTGEATYIEEFKGRFVFSLDTSVSTAYLQISSLKAEDTAVYYCARWDFYDYVEAMDYWGQGTTVTVSS VL: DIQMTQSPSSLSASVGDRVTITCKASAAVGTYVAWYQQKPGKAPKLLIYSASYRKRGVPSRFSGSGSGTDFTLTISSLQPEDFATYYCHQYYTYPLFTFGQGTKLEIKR ?
Data returned: 0.000191

Data request: Record: 1C8 x 3A1 (antibody, V domains shown, bivalent form) VH: QVQLVQSGSELKKPGASVKVSCKASGYTFTEFGMNWVRQAPGQGLEWMGWINTKTGEATYVEEFKGRFVFSLDTSVSTAYLQISSLKAEDTAVYYCARWDFYHYVEAMDYWGQGTTVTVSS VL: DIQMTQSPSSLSASVGDRVTITCKASANVGNNVAWYQQKPGKAPKLLIYLASNRSGGVPSRFSGSGSGTDFTLTISSLQPEDFATYYCHQYYTYPLFTFGQGTKLEIK
Data returned: 0.000257

Data request: Record: 3A1 (bivalent) (antibody, V domains shown, bivalent form of the clone) VH: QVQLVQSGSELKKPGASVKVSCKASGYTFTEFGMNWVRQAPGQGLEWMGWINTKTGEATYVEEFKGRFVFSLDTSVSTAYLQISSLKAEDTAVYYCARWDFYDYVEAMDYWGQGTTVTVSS VL: DIQMTQSPSSLSASVGDRVTITCKASANVGNNVAWYQQKPGKAPKLLIYLASNRSGGVPSRFSGSGSGTDFTLTISSLQPEDFATYYCHQYYTYPLFTFGQGTKLEIK
Data returned: 0.000364

Data request: Record: H3 Full (5) 8 x 2F1 (antibody, V domains shown, bivalent form; copies: 2 + 2) VH: QVQLVQSGSELKKPGASVKVSCKASGYTFTEFGMNWVRQAPGQGLEWMGWINTKTGEATYVEEFKGRFVFSLDTSVSTAYLQISSLKAEDTAVYYCARWDFFEYFKTMDYWGQGTTVTVSS VL: DIQMTQSPSSLSASVGDRVTITCKASAAVGTYVAWYQQKPGKAPKLLIYSASYRKRGVPSRFSGSGSGTDFTLTISSLQPEDFATYYCHQYYTYPLFTFGQGTKLEIK
Data returned: 0.000271
